target: human CGT (ceramide galactosyltransferase), CHO/CGT lysate (Homo sapiens); construct: Full-length human CGT cDNA was cloned into the BamH1/Xho1 site of pcDNA3.1 (+); expressed in transfected cells; host or cells: Chinese hamster ovary (CHO) cells; lysate prepared with M-PER; assay: CGT enzyme assay, RapidFire/MS/MS readout (Table 1 ranges with one asterisk *); assay type: biochemical; settings: RapidFire method (range with one asterisk *)
Sequence (Q16880 21-541): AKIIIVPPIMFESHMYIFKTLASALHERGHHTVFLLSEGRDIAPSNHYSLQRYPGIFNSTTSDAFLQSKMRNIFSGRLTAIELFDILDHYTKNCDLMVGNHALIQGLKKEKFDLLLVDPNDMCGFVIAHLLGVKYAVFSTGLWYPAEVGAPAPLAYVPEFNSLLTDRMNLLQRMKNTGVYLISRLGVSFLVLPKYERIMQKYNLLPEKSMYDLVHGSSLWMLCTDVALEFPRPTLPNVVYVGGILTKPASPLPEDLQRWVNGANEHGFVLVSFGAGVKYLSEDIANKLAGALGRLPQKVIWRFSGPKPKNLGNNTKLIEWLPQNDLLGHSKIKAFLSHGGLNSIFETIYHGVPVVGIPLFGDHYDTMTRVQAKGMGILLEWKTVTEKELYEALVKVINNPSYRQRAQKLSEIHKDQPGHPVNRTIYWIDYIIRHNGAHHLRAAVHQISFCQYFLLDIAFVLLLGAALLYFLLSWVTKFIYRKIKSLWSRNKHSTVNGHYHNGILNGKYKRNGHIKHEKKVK
pIC50: −log10 of the molar value. Structures can show the parent of a compound that is named as a salt.

{"Compound": "NC1CCN(C(=O)[C@@H](NS(=O)(=O)c2ccc3cc(OC4CCCC4)ccc3c2)C(F)(F)c2ccc(-c3ccccc3)cc2)CC1", "pIC50": "> 6.00"}
{"Compound": "NC1CC2CCC(C1)N2C(=O)[C@@H](NS(=O)(=O)c1ccc2cc(OC3CCCC3)ccc2c1)C(F)(F)c1ccc(Oc2ccc(Cl)cc2)cc1 (stereo partly drawn)", "pIC50": "> 6.00"}
{"Compound": "CN([C@@H](C(=O)N1C2CCC1CC(N)C2)C(F)(F)c1ccc(Oc2ccccc2)cc1)S(=O)(=O)c1ccc(OCC2CCCCC2)cc1 (stereo partly drawn) [Compound 85-2, trifluoroacetate]", "pIC50": "4.52 to 5.00"}
{"Compound": "CN([C@@H](C(=O)N1C2CCC1CC(N)C2)C(F)(F)c1ccc(Br)cc1)S(=O)(=O)c1ccc2c(cnn2CC2CCCC2)c1 (stereo partly drawn)", "pIC50": "4.00 to 4.52"}
{"Compound": "COc1cc(C(F)(F)[C@@H](NS(=O)(=O)c2ccc(OCC3CCCCC3)cc2)C(=O)N2C3CCC2CC(N)C3)ccc1Cl (stereo partly drawn)", "pIC50": "4.52 to 5.00"}
{"Compound": "O=C([C@@H](NS(=O)(=O)c1ccc2cc(OC3CCCC3)ccc2c1)C(F)(F)c1ccc(-c2ccc(Cl)cc2)cc1)N1CCNCC1 [Compound 137-1, trifluoroacetate]", "pIC50": "5.00 to 6.00"}

###

target: human CGT (ceramide galactosyltransferase), CHO/CGT lysate (Homo sapiens); construct: Full-length human CGT cDNA was cloned into the BamH1/Xho1 site of pcDNA3.1 (+); expressed in transfected cells; host or cells: Chinese hamster ovary (CHO) cells; lysate prepared with M-PER; assay: CGT enzyme assay, RapidFire/MS/MS readout (Table 1 ranges with one asterisk *); assay type: biochemical; settings: RapidFire method (range with one asterisk *)
Counter-ions that a name gives are not always drawn.
The reader will find reported IC50 values listed item by item below.

{"Molecule": "NC1CC2CCC(C1)N2C(=O)[C@H](NC(=O)[C@H](O)c1ccc2cc(OC3CCCC3)ccc2c1)C(F)(F)c1ccc(-c2ccc(Cl)cc2)cc1 (stereo partly drawn) [Compound 136-4, trifluoroacetate]", "IC50": "30 to 100 µM"}
{"Molecule": "NC1CCN(C(=O)[C@@H](NS(=O)(=O)c2ccc(OCC3CCCCC3)cc2)C(F)(F)c2ccc(C(F)(F)F)cc2)CC1", "IC50": "1 to 10 µM"}
{"Molecule": "CCCCOc1ccc(C(F)(F)[C@@H](C(=O)N2C3CCC2CC(N)C3)N(C)S(=O)(=O)c2ccc(OCC3CCCCC3)cc2)cc1 (stereo partly drawn)", "IC50": "1 to 10 µM"}
{"Molecule": "CN([C@@H](C(=O)N1C2CCC1CC(N)C2)C(F)(F)c1ccc(Br)cc1)S(=O)(=O)c1ccc2cc(OC3CCCC3)ccc2c1 (stereo partly drawn) [Compound 34-2, trifluoroacetate]", "IC50": "30 to 100 µM"}
{"Molecule": "NC1CCN(C(=O)[C@@H](NS(=O)(=O)c2ccc(OCC3CCCCC3)cc2)C(F)(F)c2ccc(Cl)cc2)CC1 [Compound 30-1, trifluoroacetate]", "IC50": "1 to 10 µM"}
{"Molecule": "CCCCOc1ccc(C(F)(F)[C@H](NS(=O)(=O)c2ccc3cc(OC4CCCC4)ccc3c2)C(=O)N2CCC(N)CC2)cc1", "IC50": "< 1 µM"}
